Reference source for all entries: ChEMBL document CHEMBL4028811

- study_system: Poly [ADP-ribose] polymerase 1 (Homo sapiens, UniProt P09874)
- Sequence (P09874 whole entry): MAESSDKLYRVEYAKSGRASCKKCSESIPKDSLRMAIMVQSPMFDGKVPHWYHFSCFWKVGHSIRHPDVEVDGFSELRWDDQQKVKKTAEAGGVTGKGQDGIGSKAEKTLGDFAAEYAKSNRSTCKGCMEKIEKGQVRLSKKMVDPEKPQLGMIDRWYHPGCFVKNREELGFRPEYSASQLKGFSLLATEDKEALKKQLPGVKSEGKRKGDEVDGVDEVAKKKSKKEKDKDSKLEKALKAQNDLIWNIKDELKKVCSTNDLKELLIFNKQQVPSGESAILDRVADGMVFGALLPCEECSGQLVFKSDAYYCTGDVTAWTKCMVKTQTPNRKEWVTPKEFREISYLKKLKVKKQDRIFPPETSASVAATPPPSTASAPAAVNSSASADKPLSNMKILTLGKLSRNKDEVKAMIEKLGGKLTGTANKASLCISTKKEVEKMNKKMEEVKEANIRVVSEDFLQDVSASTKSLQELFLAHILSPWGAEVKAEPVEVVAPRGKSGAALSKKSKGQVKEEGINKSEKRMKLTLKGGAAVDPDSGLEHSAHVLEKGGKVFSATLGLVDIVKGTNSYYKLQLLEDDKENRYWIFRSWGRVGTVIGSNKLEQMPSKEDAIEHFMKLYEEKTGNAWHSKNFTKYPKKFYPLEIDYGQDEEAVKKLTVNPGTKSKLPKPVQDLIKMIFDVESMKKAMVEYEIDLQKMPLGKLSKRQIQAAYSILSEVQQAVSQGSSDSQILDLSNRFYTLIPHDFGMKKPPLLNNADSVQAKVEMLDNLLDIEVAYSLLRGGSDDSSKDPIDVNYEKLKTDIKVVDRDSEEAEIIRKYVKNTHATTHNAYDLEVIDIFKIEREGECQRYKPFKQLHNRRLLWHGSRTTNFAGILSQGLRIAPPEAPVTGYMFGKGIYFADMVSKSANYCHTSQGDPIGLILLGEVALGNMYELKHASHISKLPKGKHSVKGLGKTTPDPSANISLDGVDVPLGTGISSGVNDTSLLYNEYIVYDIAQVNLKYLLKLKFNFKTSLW
- protocol_summary: Inhibition of recombinant human PARP1 expressed in Escherichia coli BL21(DE3) using histone as substrate measured after 1 hr in presence of biotinylated NAD+ by ELISA
recorded_metric: IC50

Study these solved cases before continuing.
{"compound": "CC(C)(C)OC(=O)NC1CCN(C(=O)c2nc3c(C(N)=O)cccc3[nH]2)CC1", "study_system": "Poly [ADP-ribose] polymerase 1 (Homo sapiens, UniProt P09874)", "recorded_metric": "IC50", "measured_result": "968 nM"}
{"compound": "CCC(=O)N1CCN(C(=O)c2nc3c(C(N)=O)cccc3[nH]2)CC1", "study_system": "Poly [ADP-ribose] polymerase 1 (Homo sapiens, UniProt P09874)", "recorded_metric": "IC50", "measured_result": "> 100 nM"}
{"compound": "NC(=O)c1cccc2[nH]c(C(=O)N3CCC(NC4CCNCC4)C3)nc12 (stereo unspecified)", "study_system": "Poly [ADP-ribose] polymerase 1 (Homo sapiens, UniProt P09874)", "recorded_metric": "IC50", "measured_result": "60 nM"}

Ask: # query: IC50 of entry CC(C)CN1CCN(C(=O)c2nc3c(C(N)=O)cccc3[nH]2)CC1
Result: 81 nM

Ask: # query: IC50 of entry NC(=O)c1cccc2[nH]c(C(=O)N3C[C@H]4CCCN[C@H]4C3)nc12
Result: 116 nM

Ask: # query: IC50 of entry NC(=O)c1cc(F)cc2[nH]c(C(=O)N3CCC(NC4CCCCC4)CC3)nc12
Result: 7.54 nM

Ask: # query: IC50 of entry CC(C)(C)OC(=O)N1CCN(C(=O)c2nc3c(C(N)=O)cccc3[nH]2)CC1
Result: 152 nM

Ask: # query: IC50 of entry CC(C)CN1CCC(NC(=O)c2nc3c(C(N)=O)cccc3[nH]2)CC1
Result: 92 nM

Ask: # query: IC50 of entry CC(C)(C)OC(=O)N1CCC(NC(=O)c2nc3c(C(N)=O)cccc3[nH]2)CC1
Result: 644 nM

Ask: # query: IC50 of entry NC(=O)c1cc(F)cc2[nH]c(C(=O)N3CCC(N)CC3)nc12
Result: 2.76 nM

Ask: # query: IC50 of entry CCC(CC)N1CCN(C(=O)c2nc3c(C(N)=O)cc(F)cc3[nH]2)CC1=O
Result: 88 nM

Ask: # query: IC50 of entry CCCN1CCC(NC(=O)c2nc3c(C(N)=O)cccc3[nH]2)CC1
Result: 49 nM

Ask: # query: IC50 of entry NC(=O)c1cc(F)cc2[nH]c(C(=O)N3CCC(NC4CCCCC4)C3)nc12 (stereo unspecified)
Result: 37 nM

Ask: # query: IC50 of entry CC[C@@H]1CN(C(=O)c2nc3c(C(N)=O)cccc3[nH]2)CCN1
Result: > 100 nM

Ask: # query: IC50 of entry CC(C)(C)OC(=O)NC1CCN(C(=O)c2nc3c(C(N)=O)cc(F)cc3[nH]2)C1 (stereo unspecified)
Result: > 100 nM

Ask: # query: IC50 of entry CC(C)(C)OC(=O)N1CCC(N2CCC(NC(=O)c3nc4c(C(N)=O)cccc4[nH]3)CC2)CC1
Result: 868 nM
